# reported solubility; entries follow
# Protocol notes: Solubility of the compound in phosphate buffer at pH 7.4
Your answer should be a plain number; it is taken to be in µM.

Nc1nc(-c2ccc(OCC3CCOC3)cc2)cc(=O)[nH]1 (centres undefined) :: 58

// solubility lookup, compound = N#Cc1cc(-c2nc(N)[nH]c(=O)c2C#N)ccc1OCC1CC1 , result: 45

Nc1nc(-c2ccc(OCC3CCOC3)c(OC(F)(F)F)c2)c(Cl)c(=O)[nH]1 (centres undefined) has a reported solubility of 45

====

# Protocol notes: Intrinsic clearance in human liver microsomes
# Format: ADME
# Condition description: read-out: CLH
# microsomal CLint per record follows
Your answer should be a plain number; it is taken to be in µL/min/mg.

Cc1cc(-c2nc(N)[nH]c(=O)c2Cl)cc(C#N)c1OCC1CCOC1 (stereo not given) :: 5.3
N#Cc1cc(-c2cc(=O)[nH]c(N)n2)cc(C(F)(F)F)c1 :: 0.2
CC(C)(C)COc1ccc(-c2nc(N)[nH]c(=O)c2C#N)cc1OC(F)(F)F :: 36

The compound listed as N#Cc1c(-c2ccc(OCC3CCOC3)c(OC(F)(F)F)c2)nc(N)[nH]c1=O (stereo not given) has a reported microsomal CLint of 21

====

# Protocol notes: Apparent permeability across basolateral side to apical side in human Caco2 cells
# Condition description: Caco-2
# strict inequality: Papp B→A < 300 nm/s yields met, everything else yields not met

These recorded examples may help you get a feel for the data.
N#Cc1c(-c2ccc(OCC3CCOC3)c(OC(F)(F)F)c2)nc(N)[nH]c1=O (centres undefined) :: met
Cc1cc(-c2nc(N)[nH]c(=O)c2Cl)cc(C#N)c1OCC1CCOC1 (centres undefined) :: not met
N#Cc1cc(-c2nc(N)[nH]c(=O)c2Cl)ccc1OCCCCO :: met
CC(C)(C)COc1ccc(-c2nc(N)[nH]c(=O)c2C#N)cc1OC(F)(F)F :: met
Nc1nc(-c2ccc(OCC3CCOC3)c(C(F)(F)F)c2)c(Cl)c(=O)[nH]1 (centres undefined) :: not met
N#Cc1cc(-c2nc(N)[nH]c(=O)c2C#N)ccc1OCC1CC1 :: not met
Nc1nc(-c2ccc(OCC3CCOC3)c(OC(F)(F)F)c2)c(Cl)c(=O)[nH]1 (centres undefined) :: not met

API: the following record is the query input.
Hello, is Papp B→A of the following molecule strictly smaller than 300 nm/s? CC(C)COc1ccc(-c2nc(N)[nH]c(=O)c2C#N)cc1C(F)(F)F
met

====

Recorded microsomal CLint by entry
# Protocol notes: Intrinsic clearance in human liver microsomes
# Assay type: ADME
# Condition description: read-out: CLH
Numeric only. Scale: µL/min/mg

CC(C)COc1ccc(-c2cc(=O)[nH]c(N)n2)cc1 :: 42
CC(C)COc1ccc(-c2nc(N)[nH]c(=O)c2C#N)cc1C(F)(F)F :: 8.5
Nc1nc(-c2ccc(OCC3CCOC3)cc2)cc(=O)[nH]1 (stereo unspecified) :: 21
CC(C)COc1ccc(-c2nc(N)[nH]c(=O)c2Cl)cc1C#N :: 16
CNc1nc(-c2ccc(OCC(C)C)c(C#N)c2)c(C#N)c(=O)[nH]1 :: 3.6

Now look at this entry.
For record CC(C)COc1ccc(-c2cc(=O)[nH]c(N)n2)cc1C#N the listed microsomal CLint is 7.9
